System: Plasmodium berghei
Assay: Screen against P. berghei liver stage (PbLuc), transformed with Luciferase, at 10uM
Assay type: functional, HepG2
Conditions: tested at 10 uM
About 8,600 (12%) of roughly 69,000 compounds showed an effect of 50% or more. Only a selection was taken, and strong results are over-represented in it overall.
property name: INHIBITION (%)
Please give a number only; it is taken to be in %.

// below: answered compounds
[
  {
    "compound": "O=C(c1cnccn1)N1CCN(Cc2csc(-c3ccccc3)n2)CC1",
    "property name": "INHIBITION",
    "number": 59.4
  },
  {
    "compound": "Cc1ccn(-c2ccccc2NCc2ncc[nH]2)n1",
    "property name": "INHIBITION",
    "number": 7.9
  },
  {
    "compound": "O=C(NCCCn1cccn1)N1CCCC1c1ccncc1 (centres undefined)",
    "property name": "INHIBITION",
    "number": 9.3
  },
  {
    "compound": "CCOC(=O)N1CCC(NCC2CCN(c3cnn(C)c(=O)c3)C2)CC1 (centres undefined)",
    "property name": "INHIBITION",
    "number": 26.6
  },
  {
    "compound": "CN(C)C(=O)N1CCC2(CC1)CCN(Cc1ccccn1)C2=O",
    "property name": "INHIBITION",
    "number": 20.5
  }
]

Cc1cnc(C(=O)N2CCC3(CCN(Cc4ccccn4)C3=O)C2)cn1 (centres undefined) yielded INHIBITION of -39.2

For Cn1ncc(N2CCC(CNC(=O)[C@@H](N)C3CCCCC3)CC2)cc1=O the compound record lists INHIBITION as 8.53

INHIBITION reading for O=C(c1ccc[nH]1)N1C[C@@H]2CC[C@H]1CN(c1ncccn1)C2 : -16.5

Sure, the documented INHIBITION for Cc1occc1C(=O)N1CCC2(CCN(Cc3ccccn3)C2=O)C1 (centres undefined) is 65.7

Entry Cc1oncc1C(=O)N1CCC2(CCN(Cc3ccccn3)C2=O)C1 (centres undefined) — recorded INHIBITION = 25.1

Form: compound = CC(C)(C)c1nc(CN2CCN(C(=O)c3cnccn3)CC2)cs1 ; INHIBITION = 20.8

Please fill in: INHIBITION reported for Cc1ccc(CNc2ccccc2-n2ccc(C)n2)nc1 = 40.5

So, NC(=O)C1CCN(C(=O)c2ccn(-c3ccc(F)cc3)n2)CC1 ? Its INHIBITION was -66.9

Data point: COc1cccc(C2CCCN2C(=O)NCCCn2cccn2)c1 (centres undefined) ; INHIBITION = 45.7

Reported INHIBITION of Cc1ncsc1CN1CC[C@](C)(O)[C@@H](Oc2cccc(F)c2)C1 : 33.7

According to the records, this compound CCC(CC)C(=O)NC1CCCc2nc(N3CCOCC3)ncc21 (centres undefined) displays INHIBITION of 7.52

###

Tested on: Plasmodium berghei
Assay: Screen against P. berghei liver stage (PbLuc), transformed with Luciferase, at 10uM
Assay type: functional, HepG2
Details: tested at 10 uM
The whole screen tested about 69,000 compounds, of which about 8,600 (12%) showed an effect of 50% or more. What follows is part of a selection rich in strong results, with near analogues and random picks from the rest.
// assign label 1 if INHIBITION falls strictly below 30%, else label 0 (ties count as label 0)

Sample answers from the record:
[
  {
    "compound": "Cn1ncc2c(N3CCC(F)(F)CC3)nc(-c3ccncc3)nc21",
    "classification": "label 0"
  },
  {
    "compound": "Cc1ccc(CN2CCN(Cc3nccn3C)[C@H]3CS(=O)(=O)C[C@H]32)o1",
    "classification": "label 1"
  },
  {
    "compound": "COCC(=O)N1CCN(Cn2nc(C)c(Br)c2C)CC1",
    "classification": "label 1"
  }
]

Q. Hi there! Is INHIBITION for CCN(CC)S(=O)(=O)N1CC[C@H](c2ccccc2)[C@@H]2[C@H]1CCCCN2C below 30%, do you know?
A. label 0

Q. Threshold test, INHIBITION < 30%: O=C1CCc2cc(-c3csc(CCN4CCOC4=O)n3)ccc2N1
A. label 1

Q. Input Cc1cc(Cl)ccc1C(=O)C1CCCN(Cc2cnc(N(C)C)s2)C1 (stereo not given) ; condition: INHIBITION strictly below 30%. Does it hold?
A. label 0

Q. Is it true that INHIBITION reported for O=C(c1ccco1)N1CCC(n2nc(-c3ccco3)ccc2=O)CC1 is less than 30%?
A. label 1

Q. Is it true that INHIBITION reported for CCn1cncc1C1CC(=O)Nc2c1c(C)nn2-c1ccc(C)cc1 (stereo not given) is less than 30%?
A. label 0

Q. Dear colleague, could you confirm whether INHIBITION of CCCn1ncc(CN2CCCC(C(=O)c3ccc(Cl)cc3C)C2)c1C (stereo not given) falls below 30%? Thanks.
A. label 0

Q. INHIBITION under 30%? Item: Cn1ncc2c(N3CCC3)nc(-c3ccncc3)nc21
A. label 1

Q. Threshold test, INHIBITION < 30%: Cn1ncc2c(NCC3CCS(=O)(=O)C3)nc(-c3ccncc3)nc21 (stereo not given)
A. label 1

###

Test system: Plasmodium berghei
Experiment: Screen against P. berghei liver stage (PbLuc), transformed with Luciferase, at 10uM
Assay type: functional, HepG2
Conditions: tested at 10 uM
The whole screen tested about 69,000 compounds, of which about 8,600 (12%) showed an effect of 50% or more. The entries come from a sample that favours strong results as a whole.
property name: INHIBITION
Record the result as number plus unit.

[
  {
    "compound": "Cc1cc(C)n(CC2CN(Cc3cnc(C)s3)CCO2)n1 (configuration not stated)",
    "result": "28.8%"
  },
  {
    "compound": "Cc1cc2c(cc1NC(N)=O)OCO2",
    "result": "43.2%"
  },
  {
    "compound": "O=C(CCc1nnc(-c2ccccc2)o1)N1CCCC1c1ccc[nH]1 (configuration not stated)",
    "result": "-14.9%"
  },
  {
    "compound": "Cc1nc(C)n(CC2CN(Cc3cccc4ccccc34)CCO2)n1 (configuration not stated)",
    "result": "37.4%"
  },
  {
    "compound": "COc1ccccc1-n1cc(C(=O)NCCCn2ccnn2)cn1",
    "result": "-12.5%"
  },
  {
    "compound": "COCCOC1CCN(C(C(=O)O)c2c(Cl)cccc2OC)CC1 (configuration not stated)",
    "result": "50.3%"
  },
  {
    "compound": "CCCc1cnc(C)nc1N1CCC(Cn2cc(CO)nn2)CC1",
    "result": "50.2%"
  },
  {
    "compound": "Cc1cc(C(=O)N2CCc3nc(C4CCCCN4)ncc3C2)cs1 (configuration not stated)",
    "result": "-17.7%"
  },
  {
    "compound": "COc1cccc(Cl)c1C(C(=O)O)N1CCC(Cn2cccn2)CC1 (configuration not stated)",
    "result": "-47%"
  },
  {
    "compound": "OC1(CNc2cccc(F)c2)CCNCC1",
    "result": "28.5%"
  }
]

# Cc1cc(C)n(CC2CN(Cc3ccccn3)CCO2)n1 (configuration not stated) with Plasmodium berghei: INHIBITION is 12.415%

Lab entry: Plasmodium berghei assay, compound COCCOC1CCN(C(C(=O)O)c2ccc(F)c(Cl)c2)CC1 (configuration not stated) , INHIBITION = 23.9%

###

Tested on: Plasmodium berghei
Assay: Screen against P. berghei liver stage (PbLuc), transformed with Luciferase, at 10uM
Assay type: functional, HepG2
Details: tested at 10 uM
Among all 69,000 compounds or so, about 8,600 (12%) showed an effect of 50% or more. Shown is part of a subset that was picked to be rich in strong results.
property name: INHIBITION (%)
Enter your answer as a number in %; do not include the unit.

Data point: Cc1ccc(S(=O)(=O)NC[C@H]2OC[C@@H](NCc3ccccn3)[C@@H]2O)cc1 ; INHIBITION = 38.9

In plain terms, CC(C)NC(=O)NC[C@H]1OC[C@@H](NCc2ccc(S(C)(=O)=O)cc2)[C@@H]1O has a documented INHIBITION of 49.5

###

Recorded INHIBITION values for a group of compounds are listed next.
System: Plasmodium berghei
Experiment: Screen against P. berghei liver stage (PbLuc), transformed with Luciferase, at 10uM
Assay type: functional, HepG2
Conditions: tested at 10 uM
The whole screen tested about 69,000 compounds, of which about 8,600 (12%) showed an effect of 50% or more. Shown is part of a subset that was picked to be rich in strong results.
State just the number; it will be interpreted in %.

[
  {
    "compound": "Nc1nc(N2CCCC(COc3ccc(F)cc3)C2)c2nc[nH]c2n1 (configuration not stated)",
    "property name": "INHIBITION",
    "number": 33.7
  },
  {
    "compound": "Cn1ncc(Cl)c1C(=O)NCCN1CCC(O)(c2ccc(F)cc2)CC1",
    "property name": "INHIBITION",
    "number": 6.3
  },
  {
    "compound": "COCc1cc(NCc2ccccc2-n2cncn2)ncn1",
    "property name": "INHIBITION",
    "number": 15.7
  },
  {
    "compound": "O=C(CC1[C@H]2CN(c3ncccn3)C[C@@H]12)Nc1cccnc1 (some centres not stated)",
    "property name": "INHIBITION",
    "number": 13.7
  },
  {
    "compound": "Nc1cc(N2CCCC(COc3ccc(F)cc3)C2)nc(N)n1 (configuration not stated)",
    "property name": "INHIBITION",
    "number": 79.5
  }
]

Looking up COC1C[C@@H]2CN(C(=O)c3ccc(C)s3)C[C@@H]2C1 (some centres not stated) , I found its INHIBITION recorded as -16.55

Measured INHIBITION of CCN1CCCC(C)(C(=O)NCc2nnnn2-c2ccccc2)C1 (configuration not stated) : -1.7

For COCCOc1ncccc1C(=O)N1CCCC1Cn1cc(C)cn1 (configuration not stated) the compound record lists INHIBITION as 15.5

Lookup result for CC(C)c1cc(C(=O)N2CCN(CC3CC3)[C@@H]3CS(=O)(=O)C[C@@H]32)on1 ; measured INHIBITION: 42.1

Item: O=C(NCC1(O)CCCC1)c1ccc2nsnc2c1 | INHIBITION: -47

# INHIBITION of Cc1csc(CNCc2c(C)nn(C)c2N2CCOCC2)n1 = -19.7

O=c1cc(Cn2ccnc2)nc2n1CCCN(Cc1ccc(F)cc1)C2 yielded INHIBITION of -3.52
